# MEASUREMENT NOTES: physchem
# APPLIED CONDITIONS: pH 7.8
# Description: Dissociation constant, pKa of the compound at pH 7.8
READOUT TYPE: pKa
The answer should be written as a number, with no unit following it.

smiles_code=O=C(O)c1cc(Cl)cc(Cl)c1O recorded_measurement=5.5

**Q:** Param item = O=C(O)c1cccc([N+](=O)[O-])c1 ; retrieve measured pKa.
**A:** 4.33

====

# MEASUREMENT NOTES: physchem
# APPLIED CONDITIONS: octanol/water
# Description: Octanol-water partition coefficient, log P of the compound
logP values, listed per item

smiles_code=O=C(O)c1ccccc1Cl recorded_measurement=1.98
smiles_code=O=C(O)c1cccc([N+](=O)[O-])c1 recorded_measurement=1.83
smiles_code=O=C(O)c1ccc([N+](=O)[O-])cc1 recorded_measurement=1.89

**Q:** Requested read-out: logP. Entry: O=C(O)c1cc(Cl)ccc1O
**A:** 3.02

**Q:** Request the reported logP associated with O=C(O)c1ccc(I)cc1
**A:** 3.02

**Q:** I am curious: what logP value has been reported for COc1ccc(O)c(C(=O)O)c1 ?
**A:** 2.41

**Q:** Which logP reading was recorded for the molecule O=C(O)c1ccc(Cl)c(Cl)c1 ?
**A:** 3.46

**Q:** Request the reported logP associated with O=C(O)c1cc(I)cc(I)c1O
**A:** 4.78

**Q:** I have this molecule here, O=C(O)c1cc(Br)ccc1O , and I need its recorded logP.
**A:** 3.21

**Q:** Consider the molecule O=C(O)c1cccc(Cl)c1 and give its measured logP.
**A:** 2.68

**Q:** Recorded logP of O=C(O)c1cc([N+](=O)[O-])ccc1O , please.
**A:** 2.21

**Q:** Look up logP for this molecule: O=C(O)c1ccccc1O
**A:** 2.21

====

Each entry below lists one item and its recorded fold change (FC) value.
# MEASUREMENT NOTES: Uncoupling of oxidative phosphorylation in rat liver mitochondria at pH 6 relative to control
# Assay type: functional
Would you mind answering with just the numeric figure?

Completed entries (count: 3):
compound=CC(C)CCc1cc([N+](=O)[O-])c(O)c([N+](=O)[O-])c1 recorded_measurement=5.42
compound=Cc1cc([N+](=O)[O-])c(O)c([N+](=O)[O-])c1C recorded_measurement=4.51
compound=CC(C)Cc1cc([N+](=O)[O-])c(O)c([N+](=O)[O-])c1 recorded_measurement=4.88

**Q:** # lookup: fold change (FC) of O=[N+]([O-])c1ccc(O)cc1 [P-NITROPHENOL]
**A:** 3.37

**Q:** Returns the measured fold change (FC) for the input compound. Input: CC(C)CCCCCc1cc([N+](=O)[O-])c(O)c([N+](=O)[O-])c1
**A:** 5.89

====

# System: Colon
# MEASUREMENT NOTES: Drug absorption in anesthetized rat colon at pH 6.8
# Format: ADME, tissue-based
# APPLIED CONDITIONS: in vivo
READOUT TYPE: log%Abs
Just the number, please, no unit attached.

compound=Nc1ccc([N+](=O)[O-])cc1 readout_type=log%Abs recorded_measurement=1.7
compound=c1ccc(CC2=NCCN2)cc1 readout_type=log%Abs recorded_measurement=0.6
compound=Oc1ccccc1 readout_type=log%Abs recorded_measurement=1.55
compound=O=C(O)c1cccc([N+](=O)[O-])c1 readout_type=log%Abs recorded_measurement=1

**Q:** Please look up its log%Abs: Cc1cc(=O)n(-c2ccccc2)n1C [ANTIPYRINE]
**A:** 1.3

**Q:** Return reported log%Abs; argument: O=C(O)c1ccccc1O
**A:** 1.08

====

# MEASUREMENT NOTES: physchem
# APPLIED CONDITIONS: octanol/aqueous phase
Binning of logD into classes: low band = under -2, middle band = from -2 up to 0.8, high band = 0.8 and over

Here are 5 compounds together with their reported answers.
compound=CCC(=O)c1ccc(O)cc1 classification="high band"
compound=O=C(O)c1cc(Cl)ccc1O classification="low band"
compound=O=C(O)c1cc(Cl)cc(Cl)c1O classification="middle band"
compound=O=C(O)c1cc(Br)cc(Br)c1O classification="middle band"
compound=Nc1cccc([N+](=O)[O-])c1 classification="high band"

Now let's try a different one.
**Q:** Category lookup for the compound O=C(O)c1cc(I)cc(I)c1O
**A:** middle band

====

# MEASUREMENT NOTES: Dissociation constant, pKa of the compound at pH 5.3
# Assay type: physicochemical
READOUT TYPE: pKa
When you answer, write just the number.

A selection of reference data follows.
compound=Nc1cccc([N+](=O)[O-])c1 readout_type=pKa recorded_measurement=2.8
compound=Cc1c(N(C)C)c(=O)n(-c2ccccc2)n1C readout_type=pKa recorded_measurement=0.3
compound=Cc1ccc(N)cc1 readout_type=pKa recorded_measurement=0
compound="CC(=O)Nc1ccccc1 [ACETANILIDE]" readout_type=pKa recorded_measurement=5
compound="Cc1cc(=O)n(-c2ccccc2)n1C [ANTIPYRINE]" readout_type=pKa recorded_measurement=3.9

Proceeding to the next compound to report its pKa.
**Q:** // lookup pKa for c1ccc(CC2=NCCN2)cc1
**A:** 5

====

# Tested on: Small intestine
# MEASUREMENT NOTES: Drug absorption in rat small intestine
# Type: ADME, tissue-based
# APPLIED CONDITIONS: in vivo
READOUT TYPE: log%Abs
Lab note: record the figure alone, no unit after it.

**Q:** Any idea what log%Abs was measured for c1ccc(CC2=NCCN2)cc1 ?
**A:** 0.78

**Q:** Please look up its log%Abs: Nc1ccc([N+](=O)[O-])cc1
**A:** 1.83

**Q:** Reported log%Abs, molecule Nc1ccccc1 : ____
**A:** 1.73

**Q:** Which log%Abs value belongs to Cc1cc(=O)n(-c2ccccc2)n1C [ANTIPYRINE] ?
**A:** 1.51

**Q:** Find the recorded log%Abs belonging to Cc1c(N(C)C)c(=O)n(-c2ccccc2)n1C and report it.
**A:** 1.52

**Q:** Could you tell me which log%Abs is on file for CN[C@@H](C)[C@H](O)c1ccccc1 ?
**A:** 0.85

**Q:** State the recorded log%Abs for this entry: CC(=O)Nc1ccccc1 [ACETANILIDE]
**A:** 1.62

**Q:** Request the reported log%Abs associated with C=C[C@H]1C[N@@]2CC[C@H]1C[C@H]2[C@H](O)c1ccnc2ccc(OC)cc12
**A:** 1.18

**Q:** May I ask what log%Abs has been recorded for Cn1c(=O)c2[nH]cnc2n(C)c1=O.O ?
**A:** 1.46

**Q:** Look at this molecule and give its reported log%Abs. Nc1cccc([N+](=O)[O-])c1
**A:** 1.89

**Q:** So what does the record say about log%Abs for Cc1ccc(N)cc1 ?
**A:** 1.77

====

# MEASUREMENT NOTES: physchem
# APPLIED CONDITIONS: pH 6.8
# Description: Dissociation constant, pKa of the compound at pH 6.8
pKa: recorded values

For orientation, consider the following solved cases.
compound=O=[N+]([O-])c1cccc(O)c1 recorded_measurement=1.4
compound="Cc1cc(=O)n(-c2ccccc2)n1C [ANTIPYRINE]" recorded_measurement=5.4

# context switch: different compound, same pKa
**Q:** What measured pKa goes with O=C(O)c1cc([N+](=O)[O-])ccc1O ?
**A:** 4.5

====

Reported values of logD for individual entries
# MEASUREMENT NOTES: Octanol-aqueous phase distribution coefficient, log D of the compound at pH 8
# Format: physicochemical
No unit in the answer, only the number.

Previously resolved entries follow.
smiles_code=Cc1cc([N+](=O)[O-])c(O)c([N+](=O)[O-])c1C readout_type=logD recorded_measurement=-1.26
smiles_code=CC(C)Cc1cc([N+](=O)[O-])c(O)c([N+](=O)[O-])c1 readout_type=logD recorded_measurement=-0.38
smiles_code=CC(C)CCCCCc1cc([N+](=O)[O-])c(O)c([N+](=O)[O-])c1 readout_type=logD recorded_measurement=1.42

**Q:** What does the record list as logD for O=[N+]([O-])c1ccc(O)cc1 ?
**A:** 0.96

**Q:** State the recorded logD for this entry: CC(C)CCc1cc([N+](=O)[O-])c(O)c([N+](=O)[O-])c1
**A:** -0.08

====

# MEASUREMENT NOTES: Octanol-aqueous phase distribution coefficient, log D of the compound at pH 7
# Type: physicochemical
The entries below are paired with their reported logD.
# print the numeric value only

Worked examples follow.
smiles_code=CC(C)CCCCCc1cc([N+](=O)[O-])c(O)c([N+](=O)[O-])c1 recorded_measurement=2.42
smiles_code=CC(C)CCc1cc([N+](=O)[O-])c(O)c([N+](=O)[O-])c1 recorded_measurement=0.92

**Q:** # lookup: logD of O=[N+]([O-])c1ccc(O)cc1
**A:** 1.66

**Q:** I am curious: what logD value has been reported for CC(C)Cc1cc([N+](=O)[O-])c(O)c([N+](=O)[O-])c1 ?
**A:** 0.62

**Q:** # get_value(readout='logD', item= Cc1cc([N+](=O)[O-])c(O)c([N+](=O)[O-])c1C )
**A:** -0.26
